The entries below are paired with their reported yeast fitness.
B1: tRNA (parent)
chain: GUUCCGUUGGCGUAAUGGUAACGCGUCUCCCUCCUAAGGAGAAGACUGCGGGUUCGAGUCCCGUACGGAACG

- Variants of: B1
- experiment: yeast fitness relative to wild type (ratio to wild type); higher = fitter; tRNA-Arg(CCU), competitive growth, 37 C, YPD
Variants at the floor of the assay were thinned out.
Keep it simple and answer with nothing but the number.

Check out these entries, answers already filled in.
{"sequence_entry": "GUUCCGUUGGCGUAAUGGUAACGCGUCUCCCUCCUCAGGUGAAGACUGCGGGUUCGAGUCCCGUACGGAACG", "yeast fitness": 0.604}
{"sequence_entry": "GUUCCGUUGGCGUAAUGGUAACGCGUCCCUCUCCUAAGGAGAAGACUGCGGGUUCGAGUCCCGUACGGUACG", "yeast fitness": 0.598}
{"sequence_entry": "GUUCCGUUGGGGUAAUGGUAACGCGUCUCCCUCCUAAGGAGAAGACAGCGGAUUCGACUCCCCUAGGGAACG", "yeast fitness": 0.664}
{"sequence_entry": "GUUCCGUGGGCGUAAUGGUAACGCGUCUGCCUCCUAAGGUGAAGACUGCGGGUUCGAGUCUCGUACGGCACG", "yeast fitness": 0.648}
{"sequence_entry": "GUUCCGUUGGCGUAAUGGUAACGCGUCUCCUUCCUAAGGAGAAGACUGCGAGUUCCAGUCCCGUACCGAACG", "yeast fitness": 0.526}

Challenge: Using known records, supply yeast fitness for GUUCCGUUGGCGUAAUGGUAAAGCGUCUCCCUCCUAAGGAAAAGAUUGCGGGUUCGAGUCCCGUAUGGAACG
Response given: 0.716

Challenge: Give recorded yeast fitness. GUUCCGUUGGCGUAAUGGUAAUGCGUCUCCCUCCUAAGGAGAAGGCUGCGGGUUCGAGUCCCGUACGGAACG
Response given: 0.747

Challenge: Give me measured yeast fitness, please, for this variant: GUUCCGUUGGCGUAAUGGUAACGCGUCUCCCUCCUAAGGAGAAGGCCCCGGGUUCGAGACCCGUACGGAACG
Response given: 0.576

Challenge: Look up yeast fitness of GUUCGGUUGGCGCAAUGGUAAGUCGUCUGCCUCCUAAGGAGAAGCCUGCGGGUUCGAGUCCCGUACGCGACG and report it.
Response given: 0.531

Challenge: Identify the reported yeast fitness for the following entry. GUCCCGUUGGCGUAAUGGUAACGCGCCUCCCUCCUAAGGAGAAGACUGCGGGUUCGAGUCCCGUACGGAACG
Response given: 0.886

Challenge: Supply measured yeast fitness of GUUCCGUUGGCGUAAUGGUAACGCGUCUCCCUCCUAAGGAGACGACUACGGGUUCGACUCCCGUACGGAACG in your reply.
Response given: 0.689

Challenge: For GUCCCGUUGGCGUAAUGGUAACGCGUCUCCCUCCUAAGGAGAAGACUGCAGGUUCGAGUCCCGUACGGAACG , write its yeast fitness.
Response given: 0.961

Challenge: Give the measured yeast fitness for GUUCCGUUGGCGUAAUGGUAACGCGACUCCCUCCUAAGGUGAAGACUGCGGGUUCGAGUCCCGUACGGAACG
Response given: 0.809

Challenge: // Input: GUUCCAUUGGCGUAAUGGUAACGUGUCUGCCUCCUAAGGAGAAGACUGAGGGUUCGAGUCCCGUACGGAACG . Output its yeast fitness only.
Response given: 0.575

Challenge: Please report yeast fitness for the following variant: GUUCCGUUGGCGUAAUGGUAACGCGUCGCCCUCCUAAGGAGAAGACUGCGGGUUAGAGUCCCGUACGGAACG
Response given: 0.572

Recorded values, source the RNAGym collection of RNA variant scans (doi:10.1126/science.aae0568).
